TGI: recorded values
test system: ACHN renal; assay: NCI tumour cell line growth inhibition, 48 h
Where a SMILES comes first, the peptide text is derived from it. [ ]: non-standard residue; d: D form. The star is where a group is joined. ξ: configuration not given here. NMeF = CN[C@@H](Cc1ccccc1)C(=O)O; ξNMeV = CNC(C(=O)O)C(C)C; Boc = CC(C)(C)OC(=O)*; OBn = c1ccc(CO*)cc1
MEASURE: TGI

1) O=C1c2ccccc2-c2c1c1ccccc1c(=O)n2CCCN1CCN(CCCn2c3c(c4ccccc4c2=O)C(=O)c2ccccc2-3)CC1 : > 100 µM
2) CC[O-].Cc1ccc2cccc([O-])c2n1.Cc1ccc2cccc([O-])c2n1.Cc1ccc2cccc([O-])c2n1.[Ti+4] : > 100 µM
3) COc1ccc(/C=C/c2cc(N3CCOCC3)c3cc(F)c(F)cc3n2)cc1OC : 12.4 µM
4) CCOP(=O)(OCC)C(Cc1ccc(OC)c(OC)c1)N=C(c1ccccc1)c1ccccc1 (centres undefined) : > 100 µM
5) CCOC(=O)c1c(C)n2c(=O)cc(C)c3c(OC(C)=O)c(OC(C)=O)cc1c32 : > 71.5 µM
6) Cc1ccc(-n2c(Cn3nnc(-c4cccnc4)n3)nn(C3OC(COC(=O)c4ccccc4)C(OC(=O)c4ccccc4)C3OC(=O)c3ccccc3)c2=S)cc1 (centres undefined) : > 100 µM
7) COc1ccc(N2C(=O)/C(=C\c3cccc(Oc4ccccc4)c3)S(=O)(=O)C2c2ccccc2)cc1 (centres undefined) : > 100 µM
8) O=C(Nc1nc2ccc([N+](=O)[O-])cc2[n+]([O-])n1)C(F)(F)F : 90.8 µM
9) N=C(N)n1[nH]c2c(c1=O)CCCC2 : > 100 µM
10) CC(C)C(C(=O)N1CCC[C@@H]1C(=O)OCc1ccccc1)N(C)C(=O)C(C(C)C)N(C)C(=O)[C@H](Cc1ccccc1)N(C)C(=O)[C@H](NC(=O)OC(C)(C)C)C(C)C (some centres undefined) (Boc-[dV][NMeF][ξNMeV][ξNMeV][dP]-OBn) : > 100 µM
11) N#CC1CCN2N=C(c3ccccc3)SC12c1ccccc1 (centres undefined) : > 100 µM
12) COC(=O)c1ccc([N+](=O)[O-])c(O)c1 : > 100 µM
13) CCN1CC2=C(NC(=S)NC2c2cc(OC)c(OC)c(OC)c2)/C(=C/c2cc(OC)c(OC)c(OC)c2)C1 (centres undefined) : > 100 µM
14) O=C1/C(=C\c2coc3ccccc3c2=O)c2ccccc2N1c1c(Cl)cccc1Cl : > 100 µM

Reference for the values: PubChem BioAssay (NCI)
